experiment: NCI Yeast Anticancer Drug Screen. Data for the sgs1 mgt1 strain (AID 161);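 further: 0% = growth of cultures given vehicle only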; conditions: S. cerevisiae sgs1 mgt1 strain, at 50.0 µM
Compounds without any hit were thinned out: in the full panel of roughly 79,000, 15% have a hit. Activity calls are given as the source filed them. No stated cut-off is given here; in the data, active means growth inhibition above about 70%; inactive means the rest.
Give your call using only these classes: active, inactive

# example entries with known answers
O=C(Nc1cccc(C(F)(F)F)c1)O/N=C(/Cl)CCl : active
C[C@]12CC[C@H](O)CC1=CC[C@@H]1C2CC[C@]2(C)NC(=O)CCC12 (stereo not given in full) : active
CC(=O)N=C1N(/C=C2\C(=O)Oc3ccccc3C2=O)C(=O)/C(=C/c2cccc(Cl)c2Cl)N1C : inactive
CC1OC(OC2C(Oc3c(-c4ccc(O)c(O)c4O)oc4cc(O)ccc4c3=O)OC(CO)C(O)C2O)C(O)C(O)C1O (stereo not given) : inactive
O=C(CCCN1CCc2[nH]c3cc(F)ccc3c2C1)c1ccc(F)cc1 : active
CCOC(=O)C1=C(c2ccccc2)N(C)c2ccccc2S1 : active
CCN(CC)CCC(=O)/C=C/c1ccc(Cl)c(Cl)c1 : active
S=C(Nc1cc(Cl)cc(Cl)c1)SCc1ccccc1 : active
Oc1c(C(O)(c2ccccc2)c2ccc3ccccc3c2O)ccc2ccccc12 : active

input: Assay outcome for "CCc1nc(N)nc(N)c1-c1ccc(NCCCCCCCCCCCCN)c([N+](=O)[O-])c1" : what was it?
output: inactive

----------
assay: NCI Yeast Anticancer Drug Screen. Data for the bub3 strain (AID 167); conditions: S. cerevisiae bub3 mutant strain, at 50.0 µM
This is part of a sample that, as a whole, favours compounds with a hit. Of some 79,000 tested, about 15% had one in any assay. Activity calls are given as the source filed them. Rule as the data show it: active = growth inhibition above about 70%; inactive = the rest.
Your response should consist of one outcome taken from t for active, f for inactive

As a guide, the following entries are already answered.
O=[N+]([O-])c1c(Br)ncn1Cc1ccccc1 : f
CCCCCC/C=C/C#CCCCCCCCC(=O)O : f
CC1CCC(C)(C)c2cc([N+](=O)[O-])cc([N+](=O)[O-])c21 (configuration not stated) : t
CN(C)N=Nc1c(-c2ccccc2)n[nH]c1-c1ccccc1 : t
CC(=O)OC1CCC2(C)C(C1)C(OC(C)=O)CC1C3CCC(c4cccc(=O)o4)C3(C)CCC12 (configuration not stated) : t
O=C(Nc1ccccc1)C(F)(F)C(F)(F)C(F)(F)F : f
O=C(O)COc1cc(Br)cc(Br)c1-c1ccccc1 : f
CCN(CC)CCNc1ccc2nnn3c4ccccc4c(=O)c1c23 : f

input: Fill in: this test's call for "O=C(CNc1cccc([N+](=O)[O-])c1)Nn1c(-c2ccccc2)nc2ccccc2c1=O" is ___
output: f

input: Name the outcome recorded for CCC(C)OC(=O)c1cccc(C)c1 (configuration not stated) in the assay.
output: f

input: Test call for this molecule, please: "Clc1ccccc1/C=C/c1ccnc2ccccc12"
output: t

input: Look up the recorded call for "O=S1(=O)CC=C1c1ccccc1" in this test.
output: t

----------
Assay: NCI Yeast Anticancer Drug Screen. Data for the cln2 rad14 strain (AID 165);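 further: 0% = growth equal to vehicle treated cultures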
Conditions: S. cerevisiae cln2 rad14 strain, at 5.0 µM (retest, dose inferred, filed as 0.5), active compounds read high
Procedure: Growth inhibition of yeast strains with defined genetic alterations is measured as a screen for potential anti-cancer activity. Selected strains with alterations in DNA damage repair or cell cycle control were exposed to compounds and growth inhibition was measured relative to vehicle treated controls. The strain used in this assay is cln2 rad14
The panel holds about 79,000 compounds, 15% with a hit somewhere; the sample as a whole holds those more often.
Reported growth inhibition values follow for various compounds
# output: bare number, implied unit %

Illustrative cases are given below, each with its answer.
O=C1NC(Cc2ccccc2)C(=O)O1 (centres undefined) : -11
CCOc1ccc2nc3cc(Cl)ccc3[n+](C)c2c1 : 10
FC(F)(F)c1ccccc1NC(=S)SCc1ccco1 : -4
COc1ccccc1C1(c2ccccc2OC)OC(=O)c2ccccc21 : 1
O=c1c2ccccc2sc2c1c(N(CCO)CCO)cc1ccccc12 : -7
O=C(OC1CC2CC1C1CC=CC21)c1ccccc1 (centres undefined) : -5

input: Entry under review: "C=CCSc1nc2ccccc2c(=O)n1Cc1ccco1" . Reported growth inhibition?
output: 27

input: Can you look up the measured growth inhibition of "O=C(CNC(=O)OCc1ccccc1)NNc1ccccc1Cl" for me?
output: 97

input: # input compound: "O=CC(I)=C(c1ccccc1)c1ccccc1" ; wanted: its growth inhibition
output: 4
